biological target: mouse TAR-1 (Mus musculus, UniProt Q923Y8); construct: expressed in transfected cells; test: cAMP assay, activation of mouse TAR-1; format: cell-based
pEC50: −log10 of the molar value. Structures can show the parent of a compound that is named as a salt.
Experimental Readout: pEC50

Noted pEC50 for COc1cccc(COc2ccc(CCN)cc2)c1 [Compound 42, Hydrochloride] , tested on mouse TAR-1 (Mus musculus, UniProt Q923Y8): ≥ 6.30

Noted pEC50 for NCCc1ccc(OCCCCc2ccccc2)cc1 [Compound 70, Hydrochloride] , tested on mouse TAR-1 (Mus musculus, UniProt Q923Y8): ≥ 6.30

Noted pEC50 for Cl.NCCc1ccc(Oc2ccc(O)cc2)c(I)c1 [Compound T1AM, 3-iodothyronamine Hydrochloride] , tested on mouse TAR-1 (Mus musculus, UniProt Q923Y8): 6.95

====

biological target: mouse TAR-1 (Mus musculus); construct: expressed in transfected cells; assay: cAMP assay, activation of mouse TAR-1; type: cell-based
pEC50: −log10 of the molar value. Where a name gives a salt, the structure may show the parent alone.
Give measured pEC50 for each item. Keep answers brief.

# compound NCCc1ccc(OCc2ccc(F)cc2)cc1 [Compound 41, Hydrochloride] ; its pEC50 = ≥ 6.30

# compound NCCc1ccc(OCc2ccccc2)cc1 [Compound 32, O-benzyl-tyramine hydrochloride] ; its pEC50 = ≥ 6.30

# compound CNCCc1ccc(OCc2ccccc2)c(I)c1 [Compound 52, Hydrochloride] ; its pEC50 = ≥ 6.30

# compound CNCCc1ccc(OCc2ccccc2)cc1 [Compound 51, N-methyl-O-benzyl-tyramine Hydrochloride] ; its pEC50 = ≥ 6.30

# compound c1ccc(CNCCc2ccc(OCc3ccccc3)cc2)cc1 [Compound 56, N-benzyl-O-benzyl Tyramine Hydrochloride] ; its pEC50 = ≤ 6.00

# compound CCCNCCc1ccc(OCc2ccccc2)cc1 [Compound 54, N-propyl-O-benzyl Tyramine Hydrochloride] ; its pEC50 = ≤ 6.00

# compound NCCc1cc(I)c(Oc2ccc(O)cc2)c(I)c1 [Compound T2AM, 3,5-diiodothyronamine Hydrochloride] ; its pEC50 = > 6.00

# compound NCCc1ccc(OCc2ccc(C(F)(F)F)cc2)cc1 [Compound 43, Hydrochloride] ; its pEC50 = ≥ 6.30

====

target: mouse TAR-1 (Mus musculus, UniProt Q923Y8); construct: expressed in transfected cells; assay: cAMP assay, activation of mouse TAR-1; type: cell-based; conditions: unit inferred; read-out: EC50, activation of the mouse TAR-1, further panel of thyronamine analogs
pEC50: −log10 of the molar value. Counter-ions that a name gives are not always drawn.
Give measured pEC50 for each item. Keep answers brief.

# compound COc1cc(Oc2ccccc2)ccc1C(=O)NCCCCN(C)C [Compound 123, Hydrochloride] ; its pEC50 = ≤ 6.00

# compound COc1cc(Oc2ccccc2)ccc1C(=O)NCCN(C)C [Compound 121, Hydrochloride] ; its pEC50 = ≤ 6.00

# compound COc1cc(Oc2ccccc2)ccc1C(=O)NCCN [Compound 113, Hydrochloride] ; its pEC50 = ≤ 6.00

# compound NCC(c1ccccc1)c1cccc(Oc2ccccc2)c1 (stereo not drawn) [Compound 132, Hydrochloride] ; its pEC50 = ≥ 6.30

# compound CC(C)(CN)c1ccc(Oc2ccccc2)cc1 [Compound 83, Hydrochloride] ; its pEC50 = ≤ 6.00

# compound NCC(c1ccccc1)c1ccc(Oc2ccccc2)cc1 (stereo not drawn) [Compound 131, Hydrochloride] ; its pEC50 = ≥ 6.30

# compound COc1cc(Oc2ccccc2)ccc1C(=O)NCCCN(C)C [Compound 122, Hydrochloride] ; its pEC50 = ≤ 6.00

# compound CN(C)CCc1ccc(OCc2ccccc2)cc1 [Compound 74, Hydrochloride] ; its pEC50 = ≤ 6.00

# compound COc1cc(Oc2ccccc2)ccc1C(=O)NCCCCCN(C)C [Compound 124, Hydrochloride] ; its pEC50 = ≤ 6.00

====

biological target: rat trace amine receptor (rTAR-1) (Rattus norvegicus); construct: expressed in transfected cells; assay: cAMP accumulation in HEK cells stably expressing rTAR-1; assay type: cell-based; conditions: cAMP accumulation, HEK cells stably expressing rTAR-1; read-out: Rat TAR EC50
Counter-ions that a name gives are not always drawn.
Give measured EC50 for each item. Keep answers brief.
Quote the value and follow it with the unit of measurement.

# compound NCCc1cc(I)c(Oc2ccc(O)cc2)c(I)c1 [Compound T2AM, 3,5-diiodothyronamine Hydrochloride] ; its EC50 = 56 nM

# compound NCCc1ccc(Oc2ccc(O)c(I)c2)c(I)c1 [3,3′-T2AM, 3,3′-diiodothyronamine Hydrochloride] ; its EC50 = 41 nM

# compound NCCc1cc(I)c(Oc2ccc(O)c(I)c2)c(I)c1 [Compound T3AM, 3,3′,5-triiodothyronamine Hydrochloride] ; its EC50 = 87 nM

# compound Cl.NCCc1ccc(Oc2ccc(O)cc2)cc1 [Compound T0AM, Thyronamine Hydrochloride] ; its EC50 = 131 nM
